Target: T1, Human TIGIT-Fc (human, UniProt Q495A1 22-141)
T1 construct: bought (Creative Biomart); also called TIGIT-Fc antigen; TIGIT-Fc fusion antigen; not shown: Fc part
T1 sequence (looked up): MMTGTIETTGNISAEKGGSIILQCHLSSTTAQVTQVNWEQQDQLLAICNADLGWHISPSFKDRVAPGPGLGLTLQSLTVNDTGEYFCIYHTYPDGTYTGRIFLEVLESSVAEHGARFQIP
Experiment: ForteBio BLI, IgG KD, avid
measurement-name: Kd (pM)
Respond with the bare value in pM.

According to the records, this binder anti-TIGIT antibody clone 26521 (IgG) (antibody, V domains shown, parent clone) VH: QVQLVQSGAEVKKPGSSVKVSCKASGGTFSSYAISWVRQAPGQGLEWMGGIIPIFGTANYAQKFQGRVTITADESTSTAYMELSSLRSEDTAVYYCARLHLGSSAYYGMDVWGQGTTVTVSS VL: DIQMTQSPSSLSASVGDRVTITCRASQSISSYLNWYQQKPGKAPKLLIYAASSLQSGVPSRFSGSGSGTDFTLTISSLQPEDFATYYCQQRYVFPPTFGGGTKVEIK displays Kd of 541

According to the records, this binder anti-TIGIT antibody clone 26432 (IgG) (antibody, V domains shown, also called parental clone 26432) VH: QVQLVQSGAEVKKPGSSVKVSCKASGGTFSSYAISWVRQAPGQGLEWMGGIIPIFGTANYAQKFQGRVTITADESTSTAYMELSSLRSEDTAVYYCAREAQSYRVPFDIWGQGTMVTVSS VL: EIVMTQSPATLSVSPGERATLSCRASQSVSSNLAWYQQKPGQAPRLLIYGASTRATGIPARFSGSGSGTEFTLTISSLQSEDFAVYYCQQYAIWPPFTFGGGTKVEIK displays Kd of 4620

According to the records, this binder anti-TIGIT antibody clone 29513 (IgG) (antibody, V domains shown) VH: QVQLVQSGAEVKKPGSSVKVSCKASGGTFQNYAISWVRQAPGQGLEWMGVIVPIFGTANYAQKFQGRVTVTADESTSTAYMELSSLRSEDTAVYYCARLHLGQKAYYGMDVWGQGTTVTVSS VL: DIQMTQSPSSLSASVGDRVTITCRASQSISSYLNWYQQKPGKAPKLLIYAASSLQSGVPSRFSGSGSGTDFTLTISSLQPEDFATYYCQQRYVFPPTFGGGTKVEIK displays Kd of 392

Source: patent US20200407445A1
